- Tested on: Respiratory syncytial virus recombinant with luciferase (RSV-Luc5) in HEp-2 cells
- assay info: microbe, parasite or virus in culture
- Assay type: cell-based
- conditions: human respiratory syncytial virus, HEp-2, read-out: EC50 RSVFluc-Hep2 384 V2
result type: log10(EC50) (log10 of the value in nM)
Recall that a logarithmic scale is used here: each number is log10 of EC50 in nM.

If you can, please state the reported log10(EC50) value of N#CC1(COC(=O)OC[C@H]2O[C@@](C#N)(c3ccc4c(N)ncnn34)[C@H](O)[C@@H]2O)CC1 .
3.25

Request the reported log10(EC50) associated with CCCCCCCCCCOC(=O)OC[C@H]1O[C@@](C#N)(c2ccc3c(N)ncnn23)[C@H](O)[C@@H]1O
2.86

If you can, please state the reported log10(EC50) value of CC1(COC(=O)OC[C@H]2O[C@@](C#N)(c3ccc4c(N)ncnn34)[C@H](O)[C@@H]2O)CCC1 .
2.46

Any idea what its log10(EC50) is? The compound is COc1ccc(CCOC(=O)OC[C@H]2O[C@@](C#N)(c3ccc4c(N)ncnn34)[C@H](O)[C@@H]2O)cc1
2.26

Quick check: log10(EC50) of CC1(COC(=O)OC[C@H]2O[C@@](C#N)(c3ccc4c(N)ncnn34)[C@H](O)[C@@H]2O)CC1 ?
2.09

Can you look up the measured log10(EC50) of N#C[C@@]1(c2ccc3c(N)ncnn23)O[C@H](COC(=O)OCC2(C(F)(F)F)CC2)[C@@H](O)[C@H]1O for me?
2.91

Would you kindly share the measured log10(EC50) for CC(C)(C)OP(=O)(OCOC(=O)OC[C@H]1O[C@@](C#N)(c2ccc3c(N)ncnn23)[C@H](O)[C@@H]1O)OC(C)(C)C ?
4.03

---

- assay info: Plasma stability
- Format: in vitro ADME
- Parameters: unit not given here
- conditions: 37° C., 2 μM substrate
Assign STA Human Plasma 37 to each entry below.
Hey, just send me the number, nothing else.

Quick one: STA Human Plasma 37 for N#C[C@@]1(c2ccc3c(N)ncnn23)O[C@H](COC(=O)OCC2(c3ccccc3)CC2)[C@@H](O)[C@H]1O ?
26.4

Which STA Human Plasma 37 value is on record for CC1(C)CC(COC(=O)OC[C@H]2O[C@@](C#N)(c3ccc4c(N)ncnn34)[C@H](O)[C@@H]2O)C1 ?
86

STA Human Plasma 37 lookup needed for CC(C)C(=O)O[C@H]1[C@@H](OC(=O)C(C)C)[C@](C#N)(c2ccc3c(N)ncnn23)O[C@@H]1COC(=O)OC(C)(C)C , thanks.
1584

May I ask what STA Human Plasma 37 has been recorded for CC(C)OC(=O)OC[C@H]1O[C@@](C#N)(c2ccc3c(NC(=O)OC(C)(C)C)ncnn23)[C@H](OC(=O)OC(C)C)[C@@H]1OC(=O)OC(C)C ?
604.23

Look up STA Human Plasma 37: N#C[C@@]1(c2ccc3c(N)ncnn23)O[C@H](COC(=O)OCc2ccccc2)[C@@H](O)[C@H]1O
3

Using the record for N#C[C@@]1(c2ccc3c(N)ncnn23)O[C@H](COC(=O)OCC2CC2)[C@@H](O)[C@H]1O , report its STA Human Plasma 37.
12.2

Look at this compound and give its reported STA Human Plasma 37. N#C[C@@]1(c2ccc3c(N)ncnn23)O[C@H](COC(=O)OCC23CCC(CC2)C3)[C@@H](O)[C@H]1O
85

Field request: STA Human Plasma 37 | item: CC1(OC(=O)OC[C@H]2O[C@@](C#N)(c3ccc4c(N)ncnn34)[C@H](O)[C@@H]2O)CCCCCC1
75.665

Item CC(C)COC(=O)Nc1ncnn2c([C@]3(C#N)O[C@H](COC(=O)OCC(C)C)[C@@H](O)[C@H]3O)ccc12 has what recorded STA Human Plasma 37?
344.3

Form field: reported STA Human Plasma 37 of COC(=O)OC[C@H]1O[C@@](C#N)(c2ccc3c(N)ncnn23)[C@H](OC(C)=O)[C@@H]1OC(C)=O
9.735

STA Human Plasma 37 for CC1(COC(=O)OC[C@H]2O[C@@](C#N)(c3ccc4c(N)ncnn34)[C@H](O)[C@@H]2O)CC1 ?
26.8

Record request: STA Human Plasma 37 value, item CC1(C)[C@@H]2CC[C@@]1(C)[C@@H](OC(=O)OC[C@H]1O[C@@](C#N)(c3ccc4c(N)ncnn34)[C@H](O)[C@@H]1O)C2
1366.8

Query: STA Human Plasma 37; subject: N#C[C@@]1(c2ccc3c(N)ncnn23)O[C@H](COC(=O)OC(CF)CF)[C@@H](O)[C@H]1O
105.4

Give the measured STA Human Plasma 37 of CC(C)[C@@H]1CC[C@@H](C)C[C@H]1OC(=O)OC[C@H]1O[C@@](C#N)(c2ccc3c(N)ncnn23)[C@H](O)[C@@H]1O .
1584

Item CC1=CCC(C(C)(C)OC(=O)OC[C@H]2O[C@@](C#N)(c3ccc4c(N)ncnn34)[C@H](O)[C@@H]2O)CC1 (stereo partly drawn) has what recorded STA Human Plasma 37?
1584

Please give the measured STA Human Plasma 37 for this compound: C[C@@H](OC(=O)OC[C@H]1O[C@@](C#N)(c2ccc3c(N)ncnn23)[C@H](O)[C@@H]1O)c1ccccc1
28.7

Could you tell me which STA Human Plasma 37 is on file for N#C[C@@]1(c2ccc3c(N)ncnn23)O[C@H](COC(=O)OC2CCC(F)(F)CC2)[C@@H](O)[C@H]1O ?
327.2

What STA Human Plasma 37 value was documented for this compound, CC(C)OC(=O)[C@H](CCOC(=O)OC[C@H]1O[C@@](C#N)(c2ccc3c(N)ncnn23)[C@H](O)[C@@H]1O)N(C)C ?
497.93

Please look up its STA Human Plasma 37: N#C[C@@]1(c2ccc3c(N)ncnn23)O[C@H](COC(=O)OC2CC(F)(F)C2)[C@@H](O)[C@H]1O
70

Look up STA Human Plasma 37: N#C[C@@]1(c2ccc3c(N)ncnn23)O[C@H](COC(=O)OC2CCOCC2)[C@@H](O)[C@H]1O
430.4

Give its STA Human Plasma 37 value. Item: CC[C@@H](C)OC(=O)OC[C@H]1O[C@@](C#N)(c2ccc3c(N)ncnn23)[C@H](O)[C@@H]1O
188.5

Name the recorded STA Human Plasma 37 for N#C[C@@]1(c2ccc3c(N)ncnn23)O[C@H](COC(=O)OC2CCCC2)[C@@H](O)[C@H]1O .
35.623

Form field: reported STA Human Plasma 37 of Cc1ccc(C(C)C)c(OC(=O)OC[C@H]2O[C@@](C#N)(c3ccc4c(N)ncnn34)[C@H](O)[C@@H]2O)c1
193.22

What value of STA Human Plasma 37 has been reported for the following compound? CC(C)OC(=O)Nc1ncnn2c([C@]3(C#N)O[C@H](COC(=O)OC(C)(C)C)[C@@H](O)[C@H]3O)ccc12
1584

Report STA Human Plasma 37 for CC1(C)CC(OC(=O)OC[C@H]2O[C@@](C#N)(c3ccc4c(N)ncnn34)[C@H](O)[C@@H]2O)C1 please.
32.4

Which value of STA Human Plasma 37 has been reported for N#C[C@@]1(c2ccc3c(N)ncnn23)O[C@H](COC(=O)OCCCC(=O)O)[C@@H](O)[C@H]1O in the records?
902.37

Given the compound Cc1oc(=O)oc1COC(=O)OC[C@H]1O[C@@](C#N)(c2ccc3c(N)ncnn23)[C@H](O)[C@@H]1O , what is its reported STA Human Plasma 37?
33.7
